Reference source for all entries: patent US10869931B2

Test system: choroidal neovascularization in BN rats
test_name: Laser-induced choroidal neovascularization in BN rats (FFA)
Format: in vivo, rat
condition_set: Day 7; 100 μg intravitreally once daily for 1 week (Table 53); total spots 182-188 by table
Where no end group is shown, it is not given here.
readout_kind: leakage Spots #

1. mPEG-bALD20k-Arg-Gly-Ala-Asp-Arg-Ala-Gly-Gly-Gly-Gly-Arg-Gly-Asp ({mPEG‑bALD 20 kDa}-RGADRAGGGGRGD) [mPEG-bALD20k-HM-1]
91
2. mPEG-ALD20k-Arg-Gly-Ala-Asp-Arg-Ala-Gly-Gly-Gly-Gly-Arg-Gly-Asp ({mPEG‑ALD 20 kDa}-RGADRAGGGGRGD) [mPEG-ALD20k-HM-1]
89
3. mPEG-SC20k-Arg-Gly-Ala-Asp-Arg-Ala-Gly-Gly-Gly-Gly-Arg-Gly-Asp ({mPEG‑SC 20 kDa}-RGADRAGGGGRGD) [mPEG-SC20k-HM-1]
92
4. mPEG2-NHS20k-Arg-Gly-Ala-Asp-Arg-Ala-Gly-Gly-Gly-Gly-Arg-Gly-Asp ({mPEG2‑NHS 20 kDa}-RGADRAGGGGRGD) [mPEG2-NHS20k-HM-1]
95

====

// reported Joint swelling per item
Tested on: adjuvant arthritis (AA) SD rats
test_name: Adjuvant arthritis (AA) rat model
Type: in vivo
condition_set: 10 mg/kg subcutaneous once every three days; AA SD rats
Where no end group is shown, it is not given here.
readout_kind: Joint swelling (mm)

1. mPEG-ALD5k-Arg-Gly-Ala-Asp-Arg-Ala-Gly-Gly-Gly-Gly-Arg-Gly-Asp ({mPEG‑ALD 5 kDa}-RGADRAGGGGRGD) [mPEG-ALD5k-HM-1]
0.72
2. mPEG2-NHS5k-Arg-Gly-Ala-Asp-Arg-Ala-Gly-Gly-Gly-Gly-Arg-Gly-Asp ({mPEG2‑NHS 5 kDa}-RGADRAGGGGRGD) [mPEG2-NHS5k-HM-1]
0.73
3. mPEG-SC5k-Arg-Gly-Ala-Asp-Arg-Ala-Gly-Gly-Gly-Gly-Arg-Gly-Asp ({mPEG‑SC 5 kDa}-RGADRAGGGGRGD) [mPEG-SC5k-HM-1]
0.74
4. mPEG-bALD5k-Arg-Gly-Ala-Asp-Arg-Ala-Gly-Gly-Gly-Gly-Arg-Gly-Asp ({mPEG‑bALD 5 kDa}-RGADRAGGGGRGD) [mPEG-bALD5k-HM-1]
0.73

====

Listed substances paired with reported Inhibition rate
System: human retinal vascular endothelial cells (HRCEC)
test_name: MTT proliferation of human retinal vascular endothelial cells
Type: cell-based
condition_set: 120 μg/mL; HRCEC proliferation, 48 h
Where no end group is shown, it is not given here.
readout_kind: Inhibition rate (%*)

1) mPEG-bALD40k-Arg-Gly-Ala-Asp-Arg-Ala-Gly-Gly-Gly-Gly-Arg-Gly-Asp ({mPEG‑bALD 40 kDa}-RGADRAGGGGRGD) [mPEG-bALD40k-HM-1]
63.12
2) mPEG2-NHS40k-Arg-Gly-Ala-Asp-Arg-Ala-Gly-Gly-Gly-Gly-Arg-Gly-Asp ({mPEG2‑NHS 40 kDa}-RGADRAGGGGRGD) [mPEG2-NHS40k-HM-1]
62.78
3) mPEG-SC40k-Arg-Gly-Ala-Asp-Arg-Ala-Gly-Gly-Gly-Gly-Arg-Gly-Asp ({mPEG‑SC 40 kDa}-RGADRAGGGGRGD) [mPEG-SC40k-HM-1]
63.68
4) mPEG-ALD40k-Arg-Gly-Ala-Asp-Arg-Ala-Gly-Gly-Gly-Gly-Arg-Gly-Asp ({mPEG‑ALD 40 kDa}-RGADRAGGGGRGD) [mPEG-ALD40k-HM-1]
62.08
